The reported numbers originate from patent US11505811B2.

Reported Max. specific activity, OHB values for a set of molecules
Assay: OHB reductase activity, NADH absorption at 340 nm
Format: biochemical
Settings: when not saturated, activity estimated at 20 mM substrate
Quantity Kind: Max. specific activity, OHB (µmol/mg/min)

1. Bs-Ldh: (L)-lactate dehydrogenase of Bacillus subtilis, SEQ ID NO: 8 (protein, listed as Bacillus subtilis) MMNKHVNKVALIGAGFVGSSYAFALINQGITDELVVIDVNKEKAMGDVMDLNHGKAFAPQPVKTSYGTYEDCKDADIVCICAGANQKPGETRLELVEKNLKIFKGIVSEVMASGFDGIFLVATNPVDILTYATWKFSGLPKERVIGSGTTLDSARFRFMLSEYFGAAPQNVHAHIIGEHGDTELPVWSHANVGGVPVSELVEKNDAYKQEELDQIVDDVKNAAYHIIEKKGATYYGVAMSLARITKAILHNENSILTVSTYLDGQYGADDVYIGVPAVVNRGGIAGITELNLNEKEKEQFLHSAGVLKNILKPHFAEQKVN: 15.7
2. Ll-Ldh: (L)-lactate dehydrogenase of Lactococcus lactis, SEQ ID NO: 6 (protein, listed as Lactococcus lactis) MADKQRKKVILVGDGAVGSSYAFALVNQGIAQELGIVDLFKEKTQGDAEDLSHALAFTSPKKIYSADYSDASDADLVVLTSGAPQKPGETRLDLVEKNLRITKDVVTKIVASGFKGIFLVAANPVDILTYATWKFSGFPKNRVVGSGTSLDTARFRQALAEKVDVDARSIHAYIMGEHGDSEFAVWSHANVAGVKLEQWFQENDYLNEAEIVELFESVRDAAYSIIAKKGATFYGVAVALARITKAILDDEHAVLPVSVFQDGQYGVSDCYLGQPAVVGAEGVVNPIHIPLNDAEMQKMEASGAQLKAIIDEAFAKEEFASAVKN: 18
3. Gs-Ldh: (L)-lactate dehydrogenase of Geobacillus stearothermophilus, SEQ ID NO: 10 (protein, listed as Geobacillus sterarothermophillus) MKNNGGARVVVIGAGFVGASYVFALMNQGIADEIVLIDANESKAIGDAMDFNHGKVFAPKPVDIWHGDYDDCRDADLVVICAGANQKPGETRLDLVDKNIAIFRSIVESVMASGFQGLFLVATNPVDILTYATWKFSGLPHERVIGSGTILDTARFRFLLGEYFSVAPQNVHAYIIGEHGDTELPVWSQAYIGVMPIRKLVESKGEEAQKDLERIFVNVRDAAYQIIEKKGATYYGIAMGLARVTRAILHNENAILTVSAYLDGLYGERDVYIGVPAVINRNGIREVIEIELNDDEKNRFHHSAATLKSVLARAFTR: 66.8
